Sourced from ChEMBL document CHEMBL3745672

# TESTED_TARGET: Proto-oncogene tyrosine-protein kinase Src (Homo sapiens) (UniProt P12931)
# Sequence (P12931 2-536 limits assumed): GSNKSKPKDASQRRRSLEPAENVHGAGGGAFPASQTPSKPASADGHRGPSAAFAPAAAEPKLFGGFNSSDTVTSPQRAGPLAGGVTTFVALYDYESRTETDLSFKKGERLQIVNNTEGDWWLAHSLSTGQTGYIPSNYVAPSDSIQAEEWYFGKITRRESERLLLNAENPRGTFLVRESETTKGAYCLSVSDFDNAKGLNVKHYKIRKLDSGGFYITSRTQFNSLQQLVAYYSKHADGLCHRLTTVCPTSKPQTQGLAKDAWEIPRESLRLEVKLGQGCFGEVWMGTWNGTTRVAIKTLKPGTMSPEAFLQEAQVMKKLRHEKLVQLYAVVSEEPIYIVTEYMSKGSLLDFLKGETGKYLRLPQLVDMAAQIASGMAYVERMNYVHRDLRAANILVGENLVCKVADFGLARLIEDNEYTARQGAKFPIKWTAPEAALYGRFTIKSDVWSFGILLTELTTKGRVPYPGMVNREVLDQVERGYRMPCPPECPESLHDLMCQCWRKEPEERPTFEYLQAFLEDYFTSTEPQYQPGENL
# PROTOCOL_TEXT: Inhibition of SRC (unknown origin) at 10 uM
TEST_READOUT: inhibition (%)

CN1CCN(c2ccc(Nc3ncc4cc(Oc5ccc(F)cc5F)c(=O)n(C)c4n3)cc2)CC1; 99

1. Cn1c(=O)c(Oc2ccc(F)cc2F)cc2cnc(NCCc3ccccn3)nc21
2. CN1CCN(c2ccc(Nc3ncc4cc(Oc5c(Cl)cccc5Cl)c(=O)n(C)c4n3)cc2)CC1
3. Cn1c(=O)c(Oc2c(Cl)cccc2Cl)cc2cnc(NC3CCOCC3)nc21
*Q* Please give the order of these compounds when sorted by inhibition, largest value leading. Output spec: a listing of the labels in the requested order.
*A* 2, 1, 3
(2: 72%, 1: 16%, 3: 8%)
